Every entry's value here was drawn from PubChem BioAssay AID2314.

Test: Cycloheximide Counterscreen for Small Molecule Inhibitors of Shiga Toxin; also: read at 38.3 µM for the half of the compounds with a filed dose
Settings: cell reporter, cycloheximide protein synthesis inhibition counterscreen
The whole screen tested about 300,000 compounds, of which about 37,000 (12%) were called active. Rule as the data show it: active = max response mostly above about 13% (no sharp cut-off); inactive = mostly below about 14%. This excerpt belongs to a sample that is enriched for actives.
Outcomes: class 1 = active, class 0 = inactive

{"Compound": "CCCc1cc(-c2n[nH]c(=S)n2CC)c2ccccc2n1", "Class assignment": "class 0"}
{"Compound": "Cc1ccc(-c2csc(-c3c[nH]c4ccccc34)n2)cc1", "Class assignment": "class 1"}
{"Compound": "Cc1ccccc1OCc1nnc(SCC(=O)N2c3ccccc3Sc3ccc(Cl)cc32)o1", "Class assignment": "class 0"}
{"Compound": "Cc1cc(-c2n[nH]c(=S)n2-c2ccc(C)c(C)c2)no1", "Class assignment": "class 0"}
{"Compound": "Cc1ccc(-c2csc(-c3cc(C)on3)n2)cc1", "Class assignment": "class 1"}
{"Compound": "CCC(C)Sc1nnc(-c2c[nH]c3ccccc23)n1CCOC (stereo unspecified)", "Class assignment": "class 0"}
